target: monkey TSLP-His (cynomolgus monkey, Macaca fascicularis) (cynomolgus monkey (Macaca fascicularis)); experiment: ELISA, monkey TSLP-His coated, antibody titrated, anti-human Fc-HRP
Sequence (chain, as listed by the source): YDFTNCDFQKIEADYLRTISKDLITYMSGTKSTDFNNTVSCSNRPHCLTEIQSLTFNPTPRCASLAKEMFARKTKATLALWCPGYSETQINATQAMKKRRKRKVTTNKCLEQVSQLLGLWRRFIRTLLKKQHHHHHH
readout: pEC50
Recall that pEC50 is obtained by taking minus log10 of the concentration measured in molar.

Quick one: pEC50 for Control antibody (control anti-TSLP antibody, chEMBL ID CHEMBL3707229) ?
9.72

====

target: human TSLP-His (human); test: BLI (Fortebio), antibody on ProA sensor, human TSLP 1.5625-100 nM, 1:1 model
readout: Kd (nM)
// units = nM; emit number, no label

Quick one: Kd for Control antibody (control anti-TSLP antibody, chEMBL ID CHEMBL3707229) ?
0.8

Hello, the source for this data is patent US20220363781A1, in case you need it.
